System: Streptococcus suis HE06
Assay: percent growth relative to DMSO control; higher = less growth inhibition
Settings: 10 µM; incubation time 18 h
parameter: percent growth
Please append the unit to your numeric answer.

percent growth reading for CC(C)=CCC/C(C)=C\CNCCNC1C2CC3CC(C2)CC1C3 (stereo not drawn) : 0.0687%

percent growth reading for `COc1ccc(Oc2ccc([C@@H](C)N(C)c3ncc4c(N)nc(N)nc4n3)cc2)cc1` : 104%

percent growth reading for `FC(F)(F)c1cnc(Sc2nnc(-c3ccncc3)o2)c(Cl)c1` : 94.8%

* * *

Test system: Streptococcus suis P1/7
Assay: percent growth relative to DMSO control; higher = less growth inhibition
Details: 10 µM; incubation time 18 h
What percent growth was measured for each of the following?
Unit % implied. Number only.

percent growth reading for `CN1CCC(c2cc(-c3ccncc3)c(-c3ccc(F)cc3)[nH]2)CC1` : 165

percent growth reading for `CC(C)(C)CN1C(=O)C(c2ccccc2)(c2ccccc2)N=C1N` : 49.6

percent growth reading for `Cc1ccc(-c2cc(C(=O)Nc3cccnc3)c3cc(Br)ccc3n2)cc1` : 69.7

percent growth reading for `COc1ccc(-c2cncc3ccc(C(=O)NCCCn4ccnc4)nc23)cc1` : 70.1

percent growth reading for `Cc1cc(OCC(=O)NCc2ccccc2)c2cc(Br)ccc2n1` : 176

percent growth reading for `N#Cc1ccc(-c2ccc(OCC(N)=O)cc2)cc1` : 94.4

percent growth reading for `CCOc1ccc(-c2nc(CNCCc3ccc(F)cc3)cs2)cc1` : 29.5

percent growth reading for Cc1nc(-c2ccccn2)nc(N2CCC(Cc3ccccc3)C2)c1Cl (stereo unspecified) : -0.158

percent growth reading for O=C(NC1CCN(c2ccnc3ccccc23)C1)c1cccc(C(F)(F)F)c1 (stereo unspecified) : 81.5

percent growth reading for `O=C1COCc2ccc(Br)cc2N1Cc1ccc(C(F)(F)F)cc1` : 75.4

percent growth reading for `Cc1cc(Cl)ccc1NC(=O)CCc1ccc(S(=O)(=O)NCC(C)C)cc1` : 95.4

* * *

Tested on: Streptococcus suis P1/7
Assay: percent growth relative to DMSO control; higher = less growth inhibition
Conditions: 10 µM; incubation time 18 h
What percent growth was measured for each of the following?
Unit % implied. Number only.

percent growth reading for `CN1CCC(NCc2cccc(-c3ccc(S(=O)(=O)NCc4ccccc4)cc3)c2)CC1` : 70.3

percent growth reading for CCNC(=O)C(C)Nc1nc(-c2cccnc2)nc2sc(C)c(C)c12 (configuration not stated) : 64.5

percent growth reading for COCC(C)NC(=O)CSc1ncnc2sc(-c3ccccc3)cc12 (configuration not stated) : 84.8

percent growth reading for `Cc1nc(-c2cccc(NCc3ccccc3)c2)[nH]c1C` : 12

percent growth reading for `CC[P](CC)(CC)=[Au][S][C@H]1O[C@@H](COC(C)=O)[C@H](OC(C)=O)[C@@H](OC(C)=O)[C@@H]1OC(C)=O` : 1.51

percent growth reading for `COc1cccc(CC(=O)N2CCC(n3c(C)nc4ccc(F)cc43)CC2)c1` : 65.2

percent growth reading for `Cc1cc(OCC(=O)Nc2ccc(C(C)C)cc2)n(C)c(=O)c1C#N` : 79

percent growth reading for `Cc1nn(C(=O)Nc2cccc(C(F)(F)F)c2)c(C)c1Sc1ncccn1` : -0.122

percent growth reading for `c1ccc2c(c1)CN(CC1CC1)CC1(CCN(Cc3c[nH]c4cnccc34)CC1)O2` : 91.8

percent growth reading for `COc1cccn2c(C(=O)N3CCCCC3)c(C(F)(F)F)nc12` : 87

percent growth reading for `Nc1ncnc2c1c(-c1cnc3ccccc3c1)nn2CC1CCNCC1` : 102

percent growth reading for `Clc1ccc(Cl)c(CO[C@H]2CCCC[C@@H]2n2ccnc2)c1` : 20.8

percent growth reading for `CC(=O)Nc1ccc(NC(=O)c2cc(-c3cc(Cl)ccc3O)[nH]n2)cc1` : 104

percent growth reading for `Nc1nccc2ccc(-c3ccc4nccn4c3)cc12` : 61.4

percent growth reading for `CC(C)N=c1cc2n(-c3ccc(Cl)cc3)c3ccccc3nc-2cc1Nc1ccc(Cl)cc1` : 48.2

percent growth reading for Cc1ccc2c(c1C)NC(=O)C21NN=C(c2ccccc2)S1 (configuration not stated) : 0.432

percent growth reading for CCC(Sc1nc2ccccc2o1)C(=O)Nc1nccs1 (configuration not stated) : 9.43
